- Measured on: Trypsin (Homo sapiens, UniProt P07477)
- Assay remarks: Biochemical inhibition assay, fluorogenic substrate FSR-AMC
Listed below: IC50 values for each entry.
# output: bare number, implied unit µM

Molecule | Readout unit | IC50
Cc1ccc(-n2nc(C)c(NC(=O)COC(=O)Cc3c[nH]c4ccccc34)c2C)cc1 [compound 13] | µM | 133
Cc1nn(-c2ccccc2C(F)(F)F)c(C)c1NC(=O)COC(=O)Cn1c(C)cc2ccccc21 [compound 8] | µM | 126

We next turn to a different molecule, shown below.
Provide measured IC50 value, entry: Cc1ccc(-n2nc(C)c(NC(=O)COC(=O)Cn3c(C)cc4ccccc43)c2C)cc1 [compound 9] 67.1
